Data provenance: PubChem BioAssay (NCI)

experimentalDetails: NCI Yeast Anticancer Drug Screen. Data for the mlh1 rad18 strain (AID 175)
reportedConditions: S. cerevisiae mlh1 rad18 strain growth inhibition; at 5.0 µM (retest, dose inferred, filed as 0.5); hits give high values
Compounds without any hit were thinned out: in the full panel of roughly 79,000, 15% have a hit.
measuredProperty: growth inhibition (%)
# value in %; strip the unit string

Prompt line: What does the record list as growth inhibition for Cc1cc(N(CCOS(C)(=O)=O)CCOS(C)(=O)=O)ccc1C=Nc1ccc(-c2csc(-c3ccc(Br)cc3)n2)cc1 ?
Response line: 88

Prompt line: What does the record list as growth inhibition for O=C(CC(=O)c1ccccc1)CC(=O)c1ccccc1Br ?
Response line: 1

Prompt line: What does the record list as growth inhibition for CCCCCCC1CCC(CCCCCCCC(=O)N2CCN(C)CC2)C(C/C=C/CCCCCCCC(=O)N2CCN(C)CC2)C1CCCCC (stereo unspecified) ?
Response line: 6

Prompt line: What does the record list as growth inhibition for C/C(=N\NC(N)=S)c1ccc(Oc2ccccc2)cc1 ?
Response line: 63

Prompt line: What does the record list as growth inhibition for Nc1ncnc2c1ncn2CC(O)CN(CCO)CCO (stereo unspecified) (tested in a mixture with another compound) ?
Response line: -15

Prompt line: What does the record list as growth inhibition for Nc1ccc(CCCCCc2ccc(N)cc2)cc1 ?
Response line: -1

Prompt line: What does the record list as growth inhibition for CC1(C)S[C@@H]2[C@H](N3C(=O)c4ccccc4C3=O)CN2[C@H]1NC(=O)N[C@@H]1N2C[C@@H](N3C(=O)c4ccccc4C3=O)[C@H]2SC1(C)C ?
Response line: -2

Prompt line: What does the record list as growth inhibition for NC(=S)Nc1ccccc1O ?
Response line: 14

Prompt line: What does the record list as growth inhibition for O=c1[nH]c2ccccc2c2cccc(F)c12 ?
Response line: 7

Prompt line: What does the record list as growth inhibition for CCCC(O)[C@@]1(CC)CC(C)C(O)(C2(C)C[C@H](C)[C@@H](C(CC)C(=O)C(C)[C@@H](O)[C@H](C)C3OC(O)(C(CC)C(=O)O)[C@@H](C)C(O)C3CC)O2)O1 (stereo partly specified) ?
Response line: -10

Prompt line: What does the record list as growth inhibition for O=C(O)COc1cc(Br)cc(Br)c1-c1ccccc1 ?
Response line: 22

Prompt line: What does the record list as growth inhibition for O=C(/C(=N/O)[n+]1ccccc1)c1ccccc1 ?
Response line: 4

Prompt line: What does the record list as growth inhibition for COC(=O)[C@]1(C)CCCC2(C)C3=C(CCC21)CC1(CC3)SCCS1 (stereo partly specified) ?
Response line: 18

Prompt line: What does the record list as growth inhibition for O=C(CC(c1ccccc1)c1ccccc1)NCCCCN1CCCCCCC1 ?
Response line: 16

Prompt line: What does the record list as growth inhibition for CC(=O)Nc1cc(F)c2c(c1)Cc1ccccc1-2 ?
Response line: 4

Prompt line: What does the record list as growth inhibition for OC(C/C(CNNc1ccccc1)=N/Nc1ccccc1)(C(F)(F)F)C(F)(F)F ?
Response line: 14

Prompt line: What does the record list as growth inhibition for Cc1c(N2CCCC2)cc2c(c1NC(=O)c1ccccc1Cl)C(C)(C)CC2(C)C ?
Response line: 22

Prompt line: What does the record list as growth inhibition for Cc1nc(Nc2ccc(Cl)cc2)sc1C(=O)NNc1ccc([N+](=O)[O-])cc1[N+](=O)[O-] ?
Response line: 16

Prompt line: What does the record list as growth inhibition for CCc1cccc(CC)c1NC(=S)N/C=C(\C#N)C(=O)c1ccc2ccccc2c1 ?
Response line: -2

Prompt line: What does the record list as growth inhibition for C=CCOC(=O)CC(O)C(=O)OCC=C (stereo unspecified) ?
Response line: -5

Prompt line: What does the record list as growth inhibition for Clc1ccc2ns[s+]c2c1 ?
Response line: 17
